- test-summary: Half life of compound was determined
- Format: ADME
parameter: half-life (h)

>>> readout_value("Cc1nc(C)c2c(n1)N(Cc1ccc(-c3ccccc3-c3nnn[nH]3)cc1)C(=O)CC2")
11

(a) CCCCC1=NC2(CCCC2)C(=O)N1Cc1ccc(-c2ccccc2-c2nnn[nH]2)cc1
(b) CCCCc1ncc(/C=C(\Cc2cccs2)C(=O)O)n1Cc1ccc(C(=O)O)cc1
(c) CCCCc1nc(Cl)c(CO)n1Cc1ccc(-c2ccccc2-c2nnn[n-]2)cc1.[K+]
Task: Ascending by half-life, please. Would you mind listing the labels in the order asked for?
Output: c, b, a

* * *

- test-summary: Absolute bioavailability of compound was determined
- Format: ADME, organism-based
- experimental-parameters: in vivo; read-out: Bioavailabiility
parameter: bioavailability (%)
The figure you give is taken to be in %; do not add the unit.

Task: Param item = `CCCc1nc2c(C)cc(-c3nc4ccccc4n3C)cc2n1Cc1ccc(-c2ccccc2C(=O)O)cc1` ; retrieve measured bioavailability.
Output: 43
